Data credit: patent US20260015344A1

# SYSTEM_UNDER_TEST: KRas^G12A (Homo sapiens, UniProt P01116, G12A)
# Construct: corresponding to amino acids 1-169, produced at Accelegan Inc; biotin (biotinylated); purchased Accelegan Inc
# Sequence (P01116 1-169 isoform P01116-2 G12A): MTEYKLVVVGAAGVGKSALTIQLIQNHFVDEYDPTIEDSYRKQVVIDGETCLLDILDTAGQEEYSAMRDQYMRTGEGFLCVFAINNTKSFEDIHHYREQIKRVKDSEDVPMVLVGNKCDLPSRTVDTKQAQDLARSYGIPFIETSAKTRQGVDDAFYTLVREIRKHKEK
# ASSAY_INFO: KRas Binding Assay (TR-FRET displacement), KRas G12A
# TEST_SETTINGS: TR-FRET tracer displacement
MEASURED_QUANTITY: IC50 (nM)

C[C@H](Oc1nc(-c2cc(C3(C)CCCc4sc(N)c(C#N)c43)sn2)cc(N2C[C@H]3CC[C@@H](C2)N3)n1)[C@@H]1CCCN1C (stereo partly drawn): 3080
C[C@H](Oc1nc(-c2cc(C3(C)CCCc4sc(N)c(C#N)c43)sn2)cc(N2CCCC3(CNS(=O)(=O)N3)C2)n1)[C@@H]1CCCN1C (stereo partly drawn): 35

(1) C[C@H](Oc1nc(-c2noc(C3(C)CCCc4sc(N)c(C#N)c43)n2)cc(N2CCCC3(CNS(=O)(=O)N3)C2)n1)[C@@H]1CCCN1C (stereo partly drawn)
(2) C[C@H](Oc1nc(-c2noc(C3(C)CCCc4sc(N)c(C#N)c43)n2)cc(N2CCCC3(C2)NC(=O)NC3=O)n1)[C@@H]1CCCN1C (stereo partly drawn)
(3) C[C@H](Oc1nc(-c2noc(C3(C)CCCc4sc(N)c(C#N)c43)n2)cc(N2C[C@@H]3C[C@H](C2)[C@H](O)C3)n1)[C@@H]1CCCN1C (stereo partly drawn)
(4) C[C@H](Oc1nc(-c2noc(C3(C)CCCc4sc(N)c(C#N)c43)n2)cc(N2CCCn3nc(C(=O)N(C)C)cc3C2)n1)[C@@H]1CCCN1C (stereo partly drawn)
Please produce an ascending ranking of these compounds based on IC50. As an answer, provide the labels arranged in the order called for. 1, 2, 3, 4
(1: 29 nM, 2: 49 nM, 3: 250 nM, 4: 1590 nM)

* * *

# SYSTEM_UNDER_TEST: KRas^Q61H (Homo sapiens, UniProt P01116, Q61H)
# Construct: corresponding to amino acids 1-169, produced at Accelegan Inc; biotin (biotinylated); purchased Accelegan Inc
# Sequence (P01116 1-169 isoform P01116-2 Q61H): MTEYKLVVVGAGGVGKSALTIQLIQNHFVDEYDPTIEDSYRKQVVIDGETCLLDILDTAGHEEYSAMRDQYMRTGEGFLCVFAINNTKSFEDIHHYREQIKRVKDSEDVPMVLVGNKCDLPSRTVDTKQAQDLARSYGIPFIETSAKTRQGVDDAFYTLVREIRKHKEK
# ASSAY_INFO: KRas Binding Assay (TR-FRET displacement), KRas Q61H
# TEST_SETTINGS: TR-FRET tracer displacement
MEASURED_QUANTITY: IC50 (nM)

Solved entries:
C[C@H](Oc1nc(-c2noc(C3(C)CCCc4sc(N)c(C#N)c43)n2)cc(N2CCCn3nc(C(=O)N(C)C)cc3C2)n1)[C@@H]1CCCN1C (stereo partly drawn): 1110
C[C@H](Oc1nc(-c2cc(C3(C)CCCc4sc(N)c(C#N)c43)sn2)cc(N2C[C@@H]3C[C@H](C2)[C@H](O)C3)n1)[C@@H]1CCCN1C (stereo partly drawn): 224
C[C@H](Oc1nc(-c2cc(C3(C)CCCc4sc(N)c(C#N)c43)sn2)cc(N2CCC[C@@](C)(O)C2)n1)[C@@H]1CCCN1C (stereo partly drawn): 170

(a) C[C@H](Oc1nc(-c2cc(C3(C)CCCc4sc(N)c(C#N)c43)sn2)cc(N2CCCn3nc(C(=O)N(C)C)cc3C2)n1)[C@@H]1CCCN1C (stereo partly drawn)
(b) C[C@H](Oc1nc(-c2noc(C3(C)CCCc4sc(N)c(C#N)c43)n2)cc(N2C[C@@H]3C[C@H](C2)[C@H](O)C3)n1)[C@@H]1CCCN1C (stereo partly drawn)
(c) C[C@H](Oc1nc(-c2cc(C3(C)CCCc4sc(N)c(C#N)c43)sn2)cc(N2CCCC3(CNS(=O)(=O)N3)C2)n1)[C@@H]1CCCN1C (stereo partly drawn)
Please produce an ascending ranking of these compounds based on IC50. As an answer, provide the labels arranged in the order called for. c, b, a
(c: 9 nM, b: 233 nM, a: 533 nM)
